- experimentNotes: GST conjugation activity with CDNB (HPLC)
- Format: biochemical
- conditionInfo: 0.4 mM electrophilic substrate, 4 mM glutathione, 0.1 M MOPS pH 7.0, corrected for uncatalyzed reaction

{"columns": ["molecule", "valueUnits", "Activity of soybean GST enzyme, CDNB"],
 "data": [
  ["ssm.pk0067.g5: soybean type III GST encoded by cDNA insert in clone ssm.pk0067.g5 (protein) MASYHEEEVRLLGKWASPFSNRVDLALKLKGVPYKYSEEDLANKSADLLKYNPVHKKVPVLVHNGNPLPESLIIVEYIDETWKNNPLLPQDPYERALARFWSKTLDDKILPAIWNACWSDENGREKAVEEALEALKILQETLKDKKFFGGESIGLVDIAANFIGYWVAILQEIAGLELLTIEKFPKLYNWSQDFINHPVIKEGLPPRDELFAFFKASAKK", "nmol/min/mg", 1394],
  ["se6.pk0037.h4: soybean type III GST encoded by cDNA insert in clone se6.pk0037.h4, expressed in E. coli (protein) MAATQEDVTLLGVVGSPFVCRVQIALKLKGIECKFLEENLANKSDLLLKSNPVYKKVPVFIHNEKPIAESLVIVEYIDETWKNNPILPSDPYQRSFARFWSKFIDDKIVGASWKSVFTVDEKEREKNVEESLEALQFLENELQDKRFFGGDEFGFVDIAGVFIAFSIPIFQEVAGLQLFTSEKFPKLFKWSQELINHPVVKDVLPPREPLFAFFKSLYESLSASK", "nmol/min/mg", 2364],
  ["ssl.pk0020.b10: soybean type III GST encoded by cDNA insert in clone ss1.pk0020.b10 (protein) MAEQDKVILHGMWASPYAKRVELALNFKGIPYEYVEEDLRNKSDLLLKYNPVHKKVPVLVHNGKAIAESMVILEYIDETWKDGPKLLPSDSYKRAQARFWCHFIQDQLMESTFLVVKTDGEAQQKAIDHVYEKLKVLEDGMKTYLGEGNAIISGVENNFGILDIVFCALYGAYKAHEEVIGLKFIVPEKFPVLFSWLMAIAEVEAVKIATPPHEKTVGILQLFRLSALKSSSATE", "nmol/min/mg", 470],
  ["ssm.pk0026.g11: soybean type II GST encoded by cDNA insert in clone ssm.pk0026.g11 (protein) MASASVGKELTLYSYWRSSCSHRVRIALNLKGLKYEYKPVNLLKGEQSRPEFLQLNPVGCVPVLVDDHVVLYDSFAIIMYLEDKYPHNPLLPHDIYKRAINFQAASVVSSTIQPLHNLSLLNYIGEKVGPDEKLPWAQSIIRRGFKALEKLLKDHTGRYATGDEVFLADIFLAPQLHAAFKRFNIHMNEFPILARLHETYNEIPAFQEALPENQPDAVH", "nmol/min/mg", 15]
]}
